test system: Escherichia coli; test: Antibacterial activity against Escherichia coli at 100 ug/ml after 24 hrs by agar well diffusion method; type: functional; conditions: read-out: DIZ
In this section we review reported zone of inhibition at 100 µg/mL values for a set of compounds.
readout_type: zone of inhibition at 100 µg/mL (mm)

INSERT INTO assay_data (smiles_representation, readout_type, reported_measurement) VALUES
  ('O=C(N[C@H](CO)[C@H](O)c1ccc([N+](=O)[O-])cc1)C(Cl)Cl', 'zone of inhibition at 100 µg/mL', 38),
  ('Cc1cccc2nc(N/N=C/c3ccc(Br)cc3)sc12', 'zone of inhibition at 100 µg/mL', 14),
  ('Cc1cccc2nc(N/N=C/c3cccs3)sc12', 'zone of inhibition at 100 µg/mL', 22),
  ('COc1ccc(/C=N/Nc2nc3cccc(C)c3s2)cc1Br', 'zone of inhibition at 100 µg/mL', 16),
  ('Cc1cccc2nc(N/N=C/c3cc(O)c(O)c(O)c3)sc12', 'zone of inhibition at 100 µg/mL', 37),
  ('COc1cc(/C=N/Nc2nc3cccc(C)c3s2)cc(Br)c1O', 'zone of inhibition at 100 µg/mL', 21);

* * *

system: Bacillus subtilis; experiment: Antibacterial activity against Bacillus subtilis at 75 ug/ml after 24 hrs by agar well diffusion method; type: functional; conditions: read-out: DIZ
Each item that follows carries a reported zone of inhibition at 75 µg/mL.
readout_type: zone of inhibition at 75 µg/mL (mm)

INSERT INTO results (smiles_representation, measurement_target, units_symbol, reported_measurement) VALUES
  ('Cc1cccc2nc(N/N=C/c3ccc(F)cc3)sc12', 'Bacillus subtilis', 'mm', 12),
  ('COc1cc(/C=N/Nc2nc3cccc(C)c3s2)ccc1O', 'Bacillus subtilis', 'mm', 23),
  ('Cc1cccc2nc(N/N=C/c3ccc(Cl)cc3Cl)sc12', 'Bacillus subtilis', 'mm', 13),
  ('COc1ccc(/C=N/Nc2nc3cccc(C)c3s2)c(OC)c1', 'Bacillus subtilis', 'mm', 25),
  ('COc1ccc(/C=N/Nc2nc3cccc(C)c3s2)cc1Br', 'Bacillus subtilis', 'mm', 11),
  ('O=C(N[C@H](CO)[C@H](O)c1ccc([N+](=O)[O-])cc1)C(Cl)Cl', 'Bacillus subtilis', 'mm', 31),
  ('COc1cc(/C=N/Nc2nc3cccc(C)c3s2)cc(OC)c1OC', 'Bacillus subtilis', 'mm', 28),
  ('Cc1cccc2nc(N/N=C/c3ccc(O)cc3O)sc12', 'Bacillus subtilis', 'mm', 24),
  ('Cc1cccc2nc(N/N=C/c3ccc(O)cc3)sc12', 'Bacillus subtilis', 'mm', 18),
  ('Cc1cccc2nc(N/N=C/c3ccc(Br)cc3Br)sc12', 'Bacillus subtilis', 'mm', 24),
  ('Cc1cccc2nc(N/N=C/c3ccc(O)cc3Br)sc12', 'Bacillus subtilis', 'mm', 13),
  ('Cc1cccc2nc(N/N=C/c3cc(O)c(O)c(O)c3)sc12', 'Bacillus subtilis', 'mm', 27),
  ('Cc1cccc2nc(N/N=C/c3cc4ccccc4[nH]3)sc12', 'Bacillus subtilis', 'mm', 19),
  ('Cc1cccc2nc(N/N=C/c3ccc(F)cc3F)sc12', 'Bacillus subtilis', 'mm', 13),
  ('Cc1cccc2nc(N/N=C/c3ccc(Br)cc3)sc12', 'Bacillus subtilis', 'mm', 11),
  ('Cc1cccc2nc(N/N=C/c3ccc(Cl)cc3)sc12', 'Bacillus subtilis', 'mm', 11),
  ('Cc1cccc2nc(N/N=C/c3ccccc3)sc12', 'Bacillus subtilis', 'mm', 11),
  ('COc1ccc(/C=N/Nc2nc3cccc(C)c3s2)cc1', 'Bacillus subtilis', 'mm', 20),
  ('COc1cc(/C=N/Nc2nc3cccc(C)c3s2)cc(Br)c1O', 'Bacillus subtilis', 'mm', 13),
  ('Cc1cccc2nc(N/N=C/c3ccc([N+](=O)[O-])cc3[N+](=O)[O-])sc12', 'Bacillus subtilis', 'mm', 12),
  ('Cc1cccc2nc(N/N=C/c3ccc([N+](=O)[O-])cc3)sc12', 'Bacillus subtilis', 'mm', 8),
  ('Cc1cccc2nc(N/N=C/c3cccs3)sc12', 'Bacillus subtilis', 'mm', 21);

* * *

test system: Fusarium verticillioides; experiment: Antifungal activity against Fusarium moniliforme at 50 ug/ml after 48 hrs by agar well diffusion method; assay type: functional; conditions: read-out: DIZ
Entries and their zone of inhibition at 50 µg/mL values follow.
readout_type: zone of inhibition at 50 µg/mL (mm)

INSERT INTO measurements (molecule, reported_measurement) VALUES
  ('CC(=O)N1CCN(c2ccc(OCC3COC(Cn4ccnc4)(c4ccc(Cl)cc4Cl)O3)cc2)CC1 (stereo unspecified)', 25),
  ('Cc1cccc2nc(N/N=C/c3ccco3)sc12', 13),
  ('Cc1cccc2nc(N/N=C/c3ccc(F)cc3F)sc12', 23),
  ('COc1cc(/C=N/Nc2nc3cccc(C)c3s2)ccc1OCc1ccccc1', 9),
  ('Cc1cccc2nc(N/N=C/c3ccc[nH]3)sc12', 9),
  ('Cc1cccc2nc(N/N=C/c3cc4ccccc4[nH]3)sc12', 14);

* * *

Examples of molecules with documented zone of inhibition at 25 µg/mL follow.
tested on: Escherichia coli; test: Antibacterial activity against Escherichia coli at 25 ug/ml after 24 hrs by agar well diffusion method; format: functional; settings: read-out: DIZ
readout_type: zone of inhibition at 25 µg/mL

INSERT INTO measurements (smiles_representation, readout_type, reported_measurement) VALUES
  ('Cc1cccc2nc(N/N=C/c3ccncc3)sc12', 'zone of inhibition at 25 µg/mL', '7 mm'),
  ('O=C(N[C@H](CO)[C@H](O)c1ccc([N+](=O)[O-])cc1)C(Cl)Cl', 'zone of inhibition at 25 µg/mL', '23 mm'),
  ('COc1ccc(/C=N/Nc2nc3cccc(C)c3s2)cc1Br', 'zone of inhibition at 25 µg/mL', '7 mm'),
  ('COc1ccc(/C=N/Nc2nc3cccc(C)c3s2)c(OC)c1', 'zone of inhibition at 25 µg/mL', '13 mm'),
  ('Cc1cccc2nc(N/N=C/c3ccc[nH]3)sc12', 'zone of inhibition at 25 µg/mL', '12 mm'),
  ('Cc1cccc2nc(N/N=C/c3cccs3)sc12', 'zone of inhibition at 25 µg/mL', '10 mm'),
  ('Cc1cccc2nc(N/N=C/c3ccc(O)cc3Br)sc12', 'zone of inhibition at 25 µg/mL', '6 mm'),
  ('Cc1cccc2nc(N/N=C/c3ccc(Br)cc3)sc12', 'zone of inhibition at 25 µg/mL', '3 mm'),
  ('Cc1ccc(/C=N/Nc2nc3cccc(C)c3s2)cc1', 'zone of inhibition at 25 µg/mL', '10 mm'),
  ('Cc1cccc2nc(N/N=C/c3ccc(F)cc3)sc12', 'zone of inhibition at 25 µg/mL', '5 mm'),
  ('Cc1cccc2nc(N/N=C/c3ccco3)sc12', 'zone of inhibition at 25 µg/mL', '4 mm'),
  ('Cc1cccc2nc(N/N=C/c3ccc([N+](=O)[O-])cc3)sc12', 'zone of inhibition at 25 µg/mL', '4 mm'),
  ('COc1cc(/C=N/Nc2nc3cccc(C)c3s2)cc(OC)c1OC', 'zone of inhibition at 25 µg/mL', '20 mm'),
  ('COc1cc(/C=N/Nc2nc3cccc(C)c3s2)ccc1O', 'zone of inhibition at 25 µg/mL', '10 mm'),
  ('Cc1cccc2nc(N/N=C/c3ccccc3)sc12', 'zone of inhibition at 25 µg/mL', '9 mm'),
  ('Cc1cccc2nc(N/N=C/c3ccc([N+](=O)[O-])cc3[N+](=O)[O-])sc12', 'zone of inhibition at 25 µg/mL', '8 mm'),
  ('Cc1cccc2nc(N/N=C/c3cc4ccccc4[nH]3)sc12', 'zone of inhibition at 25 µg/mL', '17 mm'),
  ('Cc1cccc2nc(N/N=C/c3ccc(O)cc3)sc12', 'zone of inhibition at 25 µg/mL', '17 mm'),
  ('Cc1cccc2nc(N/N=C/c3ccc(O)cc3O)sc12', 'zone of inhibition at 25 µg/mL', '6 mm'),
  ('Cc1cccc2nc(N/N=C/c3cc(O)c(O)c(O)c3)sc12', 'zone of inhibition at 25 µg/mL', '14 mm'),
  ('COc1cc(/C=N/Nc2nc3cccc(C)c3s2)cc(Br)c1O', 'zone of inhibition at 25 µg/mL', '11 mm'),
  ('Cc1cccc2nc(N/N=C/c3ccc(F)cc3F)sc12', 'zone of inhibition at 25 µg/mL', '4 mm'),
  ('COc1ccc(/C=N/Nc2nc3cccc(C)c3s2)cc1', 'zone of inhibition at 25 µg/mL', '10 mm'),
  ('Cc1cccc2nc(N/N=C/c3ccc(Br)cc3Br)sc12', 'zone of inhibition at 25 µg/mL', '5 mm');
